Data origin, for the record: PubChem BioAssay

Entries and their z-score values follow.
Test: plasmodial surface anion channel blockers, osmotic lysis – cell-based, P. falciparum Indochina, OD700, 18 h, primary screen (AID 1157)
Details: P. falciparum Indochina infected erythrocytes, osmotic lysis OD700, 18 h; higher = more signal, called active from +8 up or from −8 down
The source made the active and inactive calls.
MEASUREMENT_KIND: z-score

CC(C)C[C@@H]1NC(=O)[C@@H]2C[C@H](C(=O)NCCCCN(C)C)[C@H](c3ccc(O)cc3)N2C1=O
-0.189 (inactive)
COC(=O)[C@@]1(Cc2ccc(OC)cc2)[C@H]2c3cc(C(=O)N4CCCC4)n(CCN4CCOCC4)c3C[C@H]2CN1C(=O)c1ccccc1
0.225 (inactive)
CC(c1ccccc1)C(O)C1C=CC2C(=O)N(Cc3ccccc3)C(=O)C2N1n1cnnc1 (stereo not drawn)
0.929 (inactive)
CC(C)OC(=O)C1=CCC(c2cccc(Cl)c2)O1 (stereo not drawn)
0.296 (inactive)
O=C1C2C=CC(C(O)c3ccc(Br)cc3)N(n3cnnc3)C2C(=O)N1Cc1ccccc1 (stereo not drawn)
0.756 (inactive)
CN(C)CCCCCCNC(=O)[C@@H]1C[C@@H]2C(=O)NCC(=O)N2[C@@H]1c1cccc(OCCO)c1
0.253 (inactive)
C=CCC(OC(C)=O)[C@@H]1[C@@H](N(Cc2ccc(-c3cccc(C(F)(F)F)c3)o2)C(=O)Cc2ccc(OC)cc2)c2cc(OCCCO)ccc2N1C(=O)Cc1ccc(OC)cc1 (stereo partly drawn)
-0.176 (inactive)
[N-]=[N+]=NCc1ccccc1[C@H]1OC(c2ccc(OCCCO)cc2)=N[C@@]1(Cc1ccccc1)C(=O)O
0.246 (inactive)
